assay: Toxicity liver stage against HepG2, at 10uM; format: cell-based; design: test concentration 10 uM, cell line HepG2-A16-CD81EGFP; details: human, HepG2-A16-CD81EGFP cells; read-out: INHIBITION
METRIC_NAME: cytotoxicity at 10 µM (%)

| MOLECULE | UNIT_TAG | ASSAY_RESULT |
| --- | --- | --- |
| CC(C)C(=O)N1CCN(Cc2csc(-c3ccccn3)n2)CC1 | % | -5.71 |
| CCc1ccc(S(=O)(=O)N2CC3(COC(C)(C)OC3)C2)s1 | % | 5.76 |
| c1cc(CCN2CCCC2CN2CCCCC2)ccn1 (stereo unspecified) | % | 0.295 |
| Cc1cc(C(=O)NCC2OCCc3cn(CC4CC4)nc32)c(C)[nH]1 (stereo unspecified) | % | 3.42 |
| CCN1CCOC(CNCc2cnc(C(C)(C)C)s2)C1 (stereo unspecified) | % | -2.24 |
| Cc1nc(CC(=O)N2CCCC2c2nc(-c3ccccc3)no2)cs1 (stereo unspecified) | % | 7.01 |

* * *

assay: Toxicity liver stage against HepG2, at 10uM; assay type: cell-based; set-up: test concentration 10 uM, cell line HepG2-A16-CD81EGFP; settings: human, HepG2-A16-CD81EGFP cells; read-out: INHIBITION
METRIC_NAME: cytotoxicity at 10 µM

| COMPOUND | ASSAY_RESULT |
| --- | --- |
| Cc1noc(C)c1CN(C)C(C)c1cccs1 (stereo unspecified) | -3.11% |
| CN(C)CCOCC1CN(C(=O)c2ccccn2)Cc2ccnn2C1 (stereo unspecified) | -3.55% |
| COCc1nc(N2CC[C@H](N(C)C)C2)c2cnn(C)c2n1 | -6.67% |
| COc1cccc2[nH]cc(CCNC(=O)N3CCOCC3C3CC3)c12 (stereo unspecified) | 12.1% |
| O=C(O)[C@@H]1CCN(C(=O)c2cscn2)[C@@H]1c1ccc(F)cc1 | 4.97% |
| Cc1ccc(C#N)c(N2CC(C)(C)[C@@](C)(O)C2)n1 | 1.39% |
| CC(C)(C)c1ncc2c(n1)CN(C(=O)c1ccncc1)C2 | -12.5% |
| CN1CCN(Cc2cnc3n2CCN(C(=O)c2ccnnc2)C3)CC1 | -81.1% |
| O=C(c1ccc(F)c(F)c1)N1CCCSCC1CN1CCCC1 (stereo unspecified) | -0.524% |
| O=C1NC(C(=O)NCc2cccnc2Oc2ccccc2F)CO1 (stereo unspecified) | 8.99% |
| Cc1c(-c2cc(-c3cnn(C)c3C)n(CC(=O)NC3CC3)n2)cnn1C | 9.26% |

* * *

Here, each record is paired with measured cytotoxicity at 10 µM data.
assay: Toxicity liver stage against HepG2, at 10uM; assay type: cell-based; design: test concentration 10 uM, cell line HepG2-A16-CD81EGFP; conditions: human, HepG2-A16-CD81EGFP cells; read-out: INHIBITION

| COMPOUND | cytotoxicity at 10 µM (%) |
| --- | --- |
| CC(Sc1nnnn1C1CCOCC1)C(F)(F)F (stereo not given) | 11.5 |
| Cc1cnccc1CN(C)C1CCN(c2ncnc3[nH]cnc23)CC1 | -42.9 |
| Cn1nccc1C1CCN(Cc2ccn(-c3ccccc3)n2)CC1 | 17.3 |
| COCCN(Cc1ccccc1)C(=O)c1cnn(C)c1C | -144 |
| CC(C)(C)C1CC(=O)Nc2c1cnn2Cc1ccco1 (stereo not given) | -2.17 |
| CS(=O)(=O)N1Cc2nccn2CC(Cn2ncccc2=O)C1 (stereo not given) | -2.04 |
| CCC1CCCCN1Cc1ncc(-c2ccc(OC)cc2)o1 (stereo not given) | 8.57 |
| N#Cc1cccc(OCCCN2CCN(C(=O)c3ccoc3)CC2)c1 | 3.57 |
| CCC(C(=O)NCC1CCN(c2ccncc2)CC1)N(C)C (stereo not given) | 15 |
| Cc1cc(N2CCN(Cc3ccsc3)C(CCO)C2)nc(N)n1 (stereo not given) | -7.3 |
| O=C(NC(c1ccc(Cl)cc1)C(F)(F)F)c1nc(=O)[nH][nH]1 (stereo not given) | 11.5 |
| CN1C(=O)C2(CC(=O)Nc3c2cnn3C(C)(C)C)c2c(Cl)cccc21 (stereo not given) | 3.41 |
| c1ccc(CCNc2cccc(C3CCCNC3)n2)cc1 (stereo not given) | -3.18 |
| CC(C)SCCNC(=O)c1cccc2ccnn12 | -51.6 |
| O=C(CN1CCC(C(=O)c2cc(F)ccc2F)CC1)NC1CCCC1 | 4.93 |
| CN1CCOC(CNC(=O)CCCOc2ccccc2F)C1 (stereo not given) | -3.15 |
| O=C(COc1cccc2c1CCC2=O)NCc1ccccc1F | -5.33 |
| COc1c(C2CCCN2C(=O)c2ccc(C(N)=O)s2)c(C)nn1C (stereo not given) | 0.00973 |
| c1cnc(N2Cc3nccn3CC(COc3cccnc3)C2)nc1 (stereo not given) | 10.7 |
| Cc1nc(CN(C)C2CCCN(c3cccnn3)C2)no1 (stereo not given) | -7.1 |
| COc1ccc(CC(C)Nc2cccc(SC)c2)cc1 (stereo not given) | 11.6 |
| O=C1CO[C@@H]2CN(Cc3ccsc3)C[C@H]2N1Cc1ccncc1 | -73 |
| CCn1cc2c(n1)C(COC)CN(c1ccc(C)nn1)C2 (stereo not given) | 11.6 |
| CC1CCN(c2ccc(NC(=O)CCn3cccn3)cc2)CC1 | -10.6 |
| CN(Cc1cccnc1)C[C@@H]1OC[C@H]2CN(Cc3ccco3)CC[C@H]21 | -147 |
